experiment: total protein half-life in vivo (active degradation + dilution); higher = more stable protein; details: wild type E. coli NCM3722; growth: N-lim chemostat; doubling time 12 h
Label Fulfilled for high-side total protein half-life in vivo (at or above 7 h) and Not fulfilled for low-side total protein half-life in vivo (below it).

# example entries with known answers
{"ENTRY SEQUENCE": "MGKLTLLLLAILVWLQYSLWFGKNGIHDYTRVNDDVAAQQATNAKLKARNDQLFAEIDDLNGGQEALEERARNELSMTRPGETFYRLVPDASKRAQSAGQNNR [P0A6S5]", "CATEGORY LABEL": "Not fulfilled"}
{"ENTRY SEQUENCE": "MMSQPAKVLLLYAHPESQDSVANRVLLKPATQLSNVTVHDLYAHYPDFFIDIPREQALLREHEVIVFQHPLYTYSCPALLKEWLDRVLSRGFASGPGGNQLAGKYWRSVITTGEPESAYRYDALNRYPMSDVLRPFELAAGMCRMHWLSPIIIYWARRQSAQELASHARAYGDWLANPLSPGGR [P0A756]", "CATEGORY LABEL": "Fulfilled"}
{"ENTRY SEQUENCE": "MERLKRMSVFAKVVEFGSFTAAARQLQMSVSSISQTVSKLEDELQVKLLNRSTRSIGLTEAGRIYYQGCRRMLHEVQDVHEQLYAFNNTPIGTLRIGCSSTMAQNVLAGLTAKMLKEYPGLSVNLVTGIPAPDLIADGLDVVIRVGALQDSSLFSRRLGAMPMVVCAAKSYLTQYGIPEKPADLSSHSWLEYSVRPDNEFELIAPEGISTRLIPQGRFVTNDPMTLVRWLTAGAGIAYVPLMWVINEINRGELEILLPRYQSDPRPVYALYTEKDKLPLKVQVVINSLTDYFVEVGKLFQEMHGRGKEK", "CATEGORY LABEL": "Fulfilled"}
{"ENTRY SEQUENCE": "MSAQKPGLHPRNRHHSRYDLATLCQVNPELRQFLTLTPAGEQSVDFANPLAVKALNKALLAHFYAVANWDIPDGFLCPPVPGRADYIHHLADLLAEASGTIPANASILDIGVGANCIYPLIGVHEYGWRFTGSETSSQALSSAQAIISSNPGLNRAIRLRRQKESGAIFNGIIHKNEQYDATLCNPPFHDSAAAARAGSERKRRNLGLNKDDALNFGGQQQELWCEGGEVTFIKKMIEESKGFAKQVMWFTSLVSRGENLPPLYRALTDVGAVKVVKKEMAQGQKQSRFIAWTFMNDEQRRRFVNRQR", "CATEGORY LABEL": "Fulfilled"}
{"ENTRY SEQUENCE": "MKKLITANDIREAHARGEQAMSVVLRASIITPEAREVADLLGFTITECDESIPVTASVPASVPADKTESQRIRETIIAQLPEGQFTESLVAQLMEKVMKEKQSLEQGAMQPSFKSVTGKGGIKVIDGSSVKFGRFDGAEPHCVGLTDLVTGDDGSSMAAGFMQWENAFFPWTLNYDEIDMVLEGELHVRHEGQTMIAKAGDVMFIPKGSSIEFGTTSSVKFLYVAWPANWQSL", "CATEGORY LABEL": "Not fulfilled"}

q: Can MNYEIKQEEKRTVAGFHLVGPWEQTVKKGFEQLMMWVDSKNIVPKEWVAVYYDNPDETPAEKLRCDTVVTVPGYFTLPENSEGVILTEITGGQYAVAVARVVGDDFAKPWYQFFNSLLQDSAYEMLPKPCFEVYLNNGAEDGYWDIEMYVAVQPKHH be said to have total protein half-life in vivo at or above 7 h?
a: Not fulfilled

====

test: total protein half-life in vivo (active degradation + dilution); higher = more stable protein; conditions: wild type E. coli NCM3722; growth: C-lim chemostat; doubling time 12 h
// reported total protein half-life in vivo per item
# number only, unit h dropped from output

{"ENTRY SEQUENCE": "MPGLKITLLQQPLVWMDGPANLRHFDRQLEGITGRDVIVLPEMFTSGFAMEAAASSLAQDDVVNWMTAKAQQCNALIAGSVALQTESGSVNRFLLVEPGGTVHFYDKRHLFRMADEHLHYKAGNARVIVEWRGWRILPLVCYDLRFPVWSRNLNDYDLALYVANWPAPRSLHWQALLTARAIENQAYVAGCNRVGSDGNGCHYRGDSRVINPQGEIIATADAHQATRIDAELSMAALREYREKFPAWQDADEFRLW", "REPORTED MEASUREMENT": 11.7}

In the following, a different sequence is considered.
q: // returns reported total protein half-life in vivo for input MSSRVLTPDVVGIDALVHDHQTVLAKAEGGVVAVFANNAPAFYAVTPARLAELLALEEKLARPGSDVALDDQLYQEPQAAPVAVPMGKFAMYPDWQPDADFIRLAALWGVALREPVTTEELASFIAYWQAEGKVFHHVQWQQKLARSLQIGRASNGGLPKRDVNTVSEPDSQIPPGFRG [P0A8J2]
a: 5.15

====

// reported total protein half-life in vivo per item
assay: total protein half-life in vivo (active degradation + dilution); higher = more stable protein; conditions: wild type E. coli NCM3722; growth: C-lim chemostat; doubling time 3 h
# number only, unit h dropped from output

{"ENTRY SEQUENCE": "MNNMNVIIADDHPIVLFGIRKSLEQIEWVNVVGEFEDSTALINNLPKLDAHVLITDLSMPGDKYGDGITLIKYIKRHFPSLSIIVLTMNNNPAILSAVLDLDIEGIVLKQGAPTDLPKALAALQKGKKFTPESVSRLLEKISAGGYGDKRLSPKESEVLRLFAEGFLVTEIAKKLNRSIKTISSQKKSAMMKLGVENDIALLNYLSSVTLSPADKD [P0DMC7]", "total protein half-life in vivo (h)": 2.71}

q: // returns reported total protein half-life in vivo for input MTKQVKIYHNPRCSKSRETLNLLKENGVEPEVVLYLETPADAATLRDLLKILGMNSARELMRQKEDLYKELNLADSSLSEEALIQAMVDNPKLMERPIVVANGKARIGRPPEQVLEIVG
a: 3.47

====

assay: total protein half-life in vivo (active degradation + dilution); higher = more stable protein; conditions: wild type E. coli NCM3722; growth: C-lim chemostat; doubling time 6 h
REPORTED ENDPOINT: total protein half-life in vivo (h)
# number only, unit h dropped from output

{"ENTRY SEQUENCE": "MMSTTLFKDFTFEAAHRLPHVPEGHKCGRLHGHSFMVRLEITGEVDPHTGWIIDFAELKAAFKPTYERLDHHYLNDIPGLENPTSEVLAKWIWDQVKPVVPLLSAVMVKETCTAGCIYRGE", "READOUT UNIT": "h", "REPORTED MEASUREMENT": 6.53}

q: // returns reported total protein half-life in vivo for input MAGNTIGQLFRVTTFGESHGLALGCIVDGVPPGIPLTEADLQHDLDRRRPGTSRYTTQRREPDQVKILSGVFEGVTTGTSIGLLIENTDQRSQDYSAIKDVFRPGHADYTYEQKYGLRDYRGGGRSSARETAMRVAAGAIAKKYLAEKFGIEIRGCLTQMGDIPLDIKDWSQVEQNPFFCPDPDKIDALDELMRALKKEGDSIGAKVTVVASGVPAGLGEPVFDRLDADIAHALMSINAVKGVEIGDGFDVVALRGSQNRDEITKDGFQSNHAGGILGGISSGQQIIAHMALKPTSSITVPGRTINRFGEEVEMITKGRHDPCVGIRAVPIAEAMLAIVLMDHLLRQRAQNADVKTDIPRW
a: 5.92

====

experiment: total protein half-life in vivo (active degradation + dilution); higher = more stable protein; settings: wild type E. coli NCM3722; growth: N-lim chemostat; doubling time 6 h
REPORTED ENDPOINT: total protein half-life in vivo (h)
# number only, unit h dropped from output

Previously resolved entries follow.
{"ENTRY SEQUENCE": "MTVQDYLLKFRKISSLESLEKLYDHLNYTLTDDQELINMYRAADHRRAELVSGGRLFDLGQVPKSVWHYVQ", "READOUT UNIT": "h", "REPORTED MEASUREMENT": 3.59}
{"ENTRY SEQUENCE": "MDLRDLKTFLHLAESRHFGRSARAMHVSPSTLSRQIQRLEEDLGQPLFVRDNRTVTLTEAGEELRVFAQQTLLQYQQLRHTIDQQGPSLSGELHIFCSVTAAYSHLPPILDRFRAEHPSVEIKLTTGDAADAMEKVVTGEADLAIAGKPETLPGAVAFSMLENLAVVLIAPALPCPVRNQVSVEKPDWSTVPFIMADQGPVRRRIELWFRRNKISNPMIYATVGGHEAMVSMVALGCGVALLPEVVLENSPEPVRNRVMILERSDEKTPFELGVCAQKKRLHEPLIEAFWKILPNHK", "READOUT UNIT": "h", "REPORTED MEASUREMENT": 5.9}
{"ENTRY SEQUENCE": "MAQLYFYYSAMNAGKSTALLQSSYNYQERGMRTVVYTAEIDDRFGAGKVSSRIGLSSPAKLFNQNSSLFDEIRAEHEQQAIHCVLVDECQFLTRQQVYELSEVVDQLDIPVLCYGLRTDFRGELFIGSQYLLAWSDKLVELKTICFCGRKASMVLRLDQAGRPYNEGEQVVIGGNERYVSVCRKHYKEALQVDSLTAIQERHRHD", "READOUT UNIT": "h", "REPORTED MEASUREMENT": 3.86}

In the following, a different sequence is considered.
q: // returns reported total protein half-life in vivo for input MQEYTNHSDTTFALRNISFRVPGRTLLHPLSLTFPAGKVTGLIGHNGSGKSTLLKMLGRHQPPSEGEILLDAQPLESWSSKAFARKVAYLPQQLPPAEGMTVRELVAIGRYPWHGALGRFGAADREKVEEAISLVGLKPLAHRLVDSLSGGERQRAWIAMLVAQDSRCLLLDEPTSALDIAHQVDVLSLVHRLSQERGLTVIAVLHDINMAARYCDYLVALRGGEMIAQGTPAEIMRGETLEMIYGIPMGILPHPAGAAPVSFVY
a: 6.03
